All values here come from patent US20250026849A1.

- Test target: T1, CD123 (Homo sapiens (Human), UniProt P26951 19-305, limits assumed)
- T1 construct: The CD123 construct used in the ELISA is not described; also called CD123-Signal
- T1 sequence: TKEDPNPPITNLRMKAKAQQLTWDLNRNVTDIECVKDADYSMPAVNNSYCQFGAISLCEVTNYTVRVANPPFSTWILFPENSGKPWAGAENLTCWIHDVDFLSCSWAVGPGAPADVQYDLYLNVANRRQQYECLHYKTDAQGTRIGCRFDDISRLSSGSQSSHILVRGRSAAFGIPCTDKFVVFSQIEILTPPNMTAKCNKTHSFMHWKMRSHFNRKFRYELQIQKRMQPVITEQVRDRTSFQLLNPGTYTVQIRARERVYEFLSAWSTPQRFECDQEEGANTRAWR
- Assay: ELISA
- Set-up: unit not given here
One threshold, 4, splits the recorded ELISA_avg values: lower ones are Y, equal or higher ones are N.

Please review the following examples before continuing.
>>> class_label("D domain of SEQ ID NO: 613 (designed binder) MGSWIEFFHRLDAIQDRLDALGGSEAELAYFEWAIADFEHMLQLYKGKGNPEVEALQFEAFAIEGELYAYRHN")
"Y"
>>> class_label("D domain of SEQ ID NO: 465 (designed binder) MGSWFEFYERLDAINWRLFALGGSEAELAAFEKEIAAFESELQAYKGKGNPEVEALRGEAAAIREDLQAYRHN")
"Y"
>>> class_label("D domain of SEQ ID NO: 609 (designed binder) MGSWMEFEDRLIAIWARLDALGGSEAELAWFEADIADFEESLQEYKGKGNPEVEALIFEAIAINKELMAYRHN")
"Y"

Read the next record carefully.
Query block: Hello, I'm reviewing records and need to know if ELISA_avg of D domain of SEQ ID NO: 403 (designed binder) MGSWYEFWDRLDALEDRLWALGGSEAELAAFEKEIAAFESELQAYKGKGNPEVEYLRDSAAFIREELQAYRHN is below 4. Could you check?
Result block: N
